Target: wt MPER peptide (HIV-1)
Catalogue of pKd readings, one per entry.
Please report pKd as the negative decimal logarithm of the molar concentration, giving only the number.

2F5 variant r6W (antibody, V domains shown) VH: RITLKESGPPLVKPTQTLTLTCSFSGFSLSDFGVGVGWIRQPPGKALEWLAIIYSDDDKRYSPSLNTRLTITKDTSKNQVVLVMTRVSPVDTATYFCAHRRGLFGWRGPVNAMDVWGQGITVTISS VL: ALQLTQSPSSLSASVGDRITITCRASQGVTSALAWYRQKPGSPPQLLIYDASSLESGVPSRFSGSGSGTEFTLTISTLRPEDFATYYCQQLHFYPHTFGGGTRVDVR
6.45

Shift focus to the following entry.
Ask | Quick one: pKd for 2F5 variant r4WY2 (antibody, V domains shown) VH: RITLKESGPPLVKPTQTLTLTCSFSGFSLSDFGVGVGWIRQPPGKALEWLAIIYSDDDKRYSPSLNTRLTITKDTSKNQVVLVMTRVSPVDTATYFCAHRRGPYFGWYRGPVNAMDVWGQGITVTISS VL: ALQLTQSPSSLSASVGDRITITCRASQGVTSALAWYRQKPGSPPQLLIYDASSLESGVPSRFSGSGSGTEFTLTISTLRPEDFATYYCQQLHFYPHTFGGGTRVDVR ?
Reply | 8.26
